Molecular target: human E-Selectin-IgG-chimera (Homo sapiens)
Construct: fused on or other part: human IgG Fc part, captured on the plate by goat anti human Fc antibody; a tag, no second protein
Sequence (P16581 22-175 limits assumed, change not shown): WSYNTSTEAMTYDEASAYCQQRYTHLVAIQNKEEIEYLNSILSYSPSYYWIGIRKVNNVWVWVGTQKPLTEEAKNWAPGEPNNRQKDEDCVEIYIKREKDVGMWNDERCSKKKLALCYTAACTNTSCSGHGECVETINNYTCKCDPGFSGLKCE
Test: Sialyl Lewis X Tyrosine Sulfate Assay (sLex TSA), E-selectin
Format: binding
Conditions: sLexTSA, in vitro inhibition at 100 μM
RESULT TYPE: E-Selectin [% inhib.] (% inhib.)
Report only the number, with the unit % inhib. understood.

- MOLECULE SMILES: "O=C(O)CCc1cccc(NC(=O)CCCNC(=O)c2cc(O)cc(O)c2)c1"
  E-Selectin [% inhib.] [% inhib.]: 35.0
- MOLECULE SMILES: "O=C(CCCNC(=O)c1cc(O)cc(O)c1)Nc1cccc(C(=O)O)c1"
  E-Selectin [% inhib.] [% inhib.]: 40.7
- MOLECULE SMILES: "O=C(CCCNC(=O)c1cc(O)cc(O)c1)NCc1ccc(C(=O)O)cc1"
  E-Selectin [% inhib.] [% inhib.]: 24.8

human E-Selectin-IgG-chimera (Homo sapiens) E-Selectin [% inhib.] of Cc1c(NC(=O)CCCNC(=O)c2cc(O)cc(O)c2)cccc1C(=O)O is 40.9

human E-Selectin-IgG-chimera (Homo sapiens) E-Selectin [% inhib.] of O=C(O)CN1CCN(C(=O)CCCNC(=O)c2cc(O)cc(O)c2)CC1 is 10.5

human E-Selectin-IgG-chimera (Homo sapiens) E-Selectin [% inhib.] of COC(=O)Cc1cccc(NC(=O)CCCNC(=O)c2cc(O)cc(O)c2)c1 is 40.8

human E-Selectin-IgG-chimera (Homo sapiens) E-Selectin [% inhib.] of O=C(CCCNC(=O)c1cc(O)cc(O)c1)Nc1ccc(C(=O)O)cc1 is 35.9

human E-Selectin-IgG-chimera (Homo sapiens) E-Selectin [% inhib.] of Cc1ccc(C(=O)O)cc1NC(=O)CCCNC(=O)c1cc(O)cc(O)c1 is 35.8

human E-Selectin-IgG-chimera (Homo sapiens) E-Selectin [% inhib.] of COC(=O)c1ccc(C)c(NC(=O)CCCNC(=O)c2cc(O)cc(O)c2)c1 is 38.9

human E-Selectin-IgG-chimera (Homo sapiens) E-Selectin [% inhib.] of COC(=O)c1ccc(CNC(=O)CCCNC(=O)c2cc(O)cc(O)c2)cc1 is 34.4

human E-Selectin-IgG-chimera (Homo sapiens) E-Selectin [% inhib.] of COC(=O)CCc1cccc(NC(=O)CCCNC(=O)c2cc(O)cc(O)c2)c1 is 38.6

human E-Selectin-IgG-chimera (Homo sapiens) E-Selectin [% inhib.] of COC(=O)c1cccc(NC(=O)CCCNC(=O)c2cc(O)cc(O)c2)c1 is 42.7

human E-Selectin-IgG-chimera (Homo sapiens) E-Selectin [% inhib.] of O=C(O)Cc1cccc(NC(=O)CCCNC(=O)c2cc(O)cc(O)c2)c1 is 41.0
